Molecular target: Dickkopf-related protein 1 (Homo sapiens) (UniProt O94907)
Sequence (O94907 whole entry, looked up): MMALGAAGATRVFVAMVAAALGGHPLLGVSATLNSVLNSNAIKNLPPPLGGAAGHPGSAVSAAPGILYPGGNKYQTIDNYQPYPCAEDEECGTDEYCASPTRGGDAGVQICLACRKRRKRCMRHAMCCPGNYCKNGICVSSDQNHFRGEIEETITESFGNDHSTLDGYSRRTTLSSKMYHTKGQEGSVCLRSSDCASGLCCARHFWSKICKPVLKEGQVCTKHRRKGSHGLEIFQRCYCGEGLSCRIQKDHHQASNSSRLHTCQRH
Test: DKK1 binders on small-molecule microarrays, primary screen, biochemical, small-molecule microarray, 635 nm fluorescence scan (AID 1106);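 further: score merges emission near 667 nm with signal to noise over three replicate slides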
Settings: DKK1 binding, higher = more signal
Rule: rule met for composite z-score not less than 0.4, rule not met for anything less.

• COc1ccc(O[C@H]2C=C[C@@H](c3ccccc3)O[C@@H]2COC(=O)CCC(C)=NO[C@H](C)c2cn([C@@H]3COC[C@H]3O)nn2)cc1 = rule met
• COCCOC(=O)N1C(=O)[C@@]2(c3cc(C#CCNC(N)=O)ccc31)[C@H](c1ccccc1OCCO)N1[C@H](c3ccccc3)[C@H](c3ccccc3)OC(=O)[C@H]1[C@@H]2C(=O)N1CCN(c2ncccn2)CC1 = rule not met
• CO[C@@H]1COC(=O)[C@H](C)NC(=O)[C@@H](C)COC(=O)CCC[C@H]1C = rule met
• CCOC(=O)CCN1C(=O)[C@H]2[C@H]3[C@H](O)[C@H](O)CC(=NOC[C@@H](O)COCc4ccco4)[C@@H]3CC[C@H]2C1=O = rule not met
• O=C1C[C@@H](O)[C@@H](O)[C@@H]2[C@@H]3C(=O)N(Cc4ccc5c(c4)OCO5)C(=O)[C@@H]3CC[C@@H]12 = rule met
• CC(CCC(=O)OC[C@H]1O[C@H](C#Cc2ccccc2)C=C[C@@H]1Oc1ccc(C)cc1)=NOC[C@@H](O)COCc1ccco1 = rule not met
• NCCCCCNC(=O)[C@@H]1C[C@@H]2C(=O)N3CCC[C@H]3C(=O)N2[C@@H]1c1cccc(OCCO)c1 = rule met
• COC(=O)[C@H](C)NC(=O)CCC1CC(OC(=O)NCc2ccc3c(c2)OCO3)CC2(CCCC(COC(=O)NCCOc3ccccc3)O2)O1 (stereo not given in full) = rule met
• CO[C@@H]1COC(=O)[C@@H]2CCCN2C(=O)[C@@H](C)COC(=O)[C@H](COCc2ccccc2)NC(=O)CC=C[C@H]1C = rule not met
• CCOC(=O)CCN1C(=O)[C@H]2[C@H]3[C@H](O)[C@H](O)CC(=NNC(=O)OCc4ccc(OC)cc4)[C@@H]3CC[C@H]2C1=O = rule met
• CC(C)=NOCc1cccc(-c2cc(-c3ccccc3)no2)c1 = rule met
• CC(C)(C)N1CC=CC23O[C@@H]4C=CCCOC(=O)C4[C@H]2C(=O)N(CCCCCO)[C@@H]3C1=O (stereo not given in full) = rule not met
• C=CCNC(=O)[C@H]1[C@@H]2C(=O)O[C@@H](c3ccccc3)[C@@H](c3ccccc3)N2[C@@H](c2ccc(O)cc2)[C@]12C(=O)N(C(=O)OCCOC)c1ccc(C#CC3=CCCCC3)cc12 = rule not met
• [N-]=[N+]=NCc1ccccc1C[C@]1(C(=O)NCc2ccccc2)N=C(c2ccc(OCCCO)cc2)O[C@H]1c1ccccc1N=[N+]=[N-] = rule not met
• CC1CC/C=C\[C@H]2OC34C=CCN(C(C)C)C(=O)[C@H]3N(CCCO)C(=O)[C@@H]4C2C(=O)O1 (stereo not given in full) = rule not met
• O=C1O[C@@H](c2ccccc2)[C@@H](c2ccccc2)N2[C@@H](c3ccc(OCCO)cc3)[C@]3(C(=O)Nc4ccccc43)[C@@H](C(=O)N3CCN(c4ncccn4)CC3)[C@H]12 = rule met
• C#CCCCON=C1C[C@@H](O)[C@@H](O)[C@@H]2[C@@H]3C(=O)N(CCC(=O)OCC)C(=O)[C@@H]3CC[C@@H]12 = rule not met
• CCOC(=O)C1=CCC(c2cc3ccccc3[nH]2)NC1 (stereo not given) = rule not met
• O=C1CCCC=C1C(O)CCOCc1ccccc1 (stereo not given) = rule met
• CO[C@H]1COC(=O)[C@@H]2CCCN2C(=O)CC=C[C@@H](C)[C@H](OC)COC(=O)CC=C[C@@H]1C = rule met
• C[C@@H]1C=CCC(=O)OC[C@H](C)C(=O)N2CCC[C@H]2C(=O)OC1 = rule met
• Cc1ccc(F)cc1S(=O)(=O)N[C@@H]1CCN(Cc2ccc(CC(C)C)cc2)C1 = rule not met
• CC1CC/C=C\[C@H]2OC34C=CCN(Cn5nnc6ccccc65)C(=O)[C@H]3N(CCO)C(=O)[C@@H]4C2C(=O)O1 (stereo not given in full) = rule not met
• CCOC(=O)NN=C1C[C@@H](O)[C@@H](O)[C@@H]2[C@@H]3C(=O)N(C4CCCCC4)C(=O)[C@@H]3CC[C@@H]12 = rule met
• C=CCN1C(=O)[C@]2(O[C@H](CCn3cc(CCO)nn3)[C@@H]([Si](C)(C)c3ccc(OC)cc3)[C@@H]2C)c2cc(N3CCOC3=O)ccc21 = rule not met
• COCCCNC(=O)[C@]1(Cc2ccccc2)N=C(c2ccc(OCCCO)cc2)O[C@@H]1c1ccccc1 = rule not met
• C=C(/C(=C/C[C@@H](OC(=O)c1ccncc1)c1ccc(OCCO)cc1)c1cnc2ccccc2c1)C(C)C = rule met
• C[C@H]1Cc2c(-c3ccccc3)nc3c(c2CO1)CN(CCOc1ccccc1)CC3 = rule met
• Cc1cc2c(nc1C)CCCN2CC(O)CN1CCN(C)CC1 (stereo not given) = rule met
• C=CC[C@@H]1C=C[C@H](ON=Cc2ccc(C(=O)N3[C@H](c4ccc(C)cc4)[C@@H](C)CC[C@H]3C(=O)OC)cc2)[C@@H](CO)O1 = rule not met
